Sourced from the supplement of paper PMC10065799

Study System: Grb2 SH2 (UniProt P62993)
Protocol Details: SH2 binding enrichment of the phosphorylated peptide, bacterial display (enrichment ratio); higher = better substrate or ligand; peptides without Tyr show the background
Quantity Name: SH2 binding enrichment

A selection of reference data follows.
INSERT INTO measurements (sequence_entry, reported_value) VALUES
  ('FTNELYMMMRD [FGFR1_Y730_C725Y_YF]', 0.844),
  ('LFHENYNAGTY [CFI_Y421_I416L]', 0.9),
  ('CTTIHKNYMCN [TP53_Y234_Y234K]', 1.05);

[a] QNKEDYAGLKE [GSTO1_Y139]
[b] RGGWVYVLHPT [TRMT61A_Y67]
Qu. Identify the entry with the larger SH2 binding enrichment. Options: a and b # respond with the chosen item's label
Ans. b
(b: 0.99, a: 0.69)

[1] EEESCYILHSS [PATJ_Y783]
[2] IVEFAYNDKAI [PUM3_Y259_YF]
Qu. In terms of reported SH2 binding enrichment, does 1 or 2 have the smaller number? # respond with the chosen item's label
Ans. 2
(2: 0.642, 1: 0.944)

###

phosphorylation enrichment: recorded values
Study System: Fes (UniProt P07332)
Sequence (P07332 whole entry, looked up): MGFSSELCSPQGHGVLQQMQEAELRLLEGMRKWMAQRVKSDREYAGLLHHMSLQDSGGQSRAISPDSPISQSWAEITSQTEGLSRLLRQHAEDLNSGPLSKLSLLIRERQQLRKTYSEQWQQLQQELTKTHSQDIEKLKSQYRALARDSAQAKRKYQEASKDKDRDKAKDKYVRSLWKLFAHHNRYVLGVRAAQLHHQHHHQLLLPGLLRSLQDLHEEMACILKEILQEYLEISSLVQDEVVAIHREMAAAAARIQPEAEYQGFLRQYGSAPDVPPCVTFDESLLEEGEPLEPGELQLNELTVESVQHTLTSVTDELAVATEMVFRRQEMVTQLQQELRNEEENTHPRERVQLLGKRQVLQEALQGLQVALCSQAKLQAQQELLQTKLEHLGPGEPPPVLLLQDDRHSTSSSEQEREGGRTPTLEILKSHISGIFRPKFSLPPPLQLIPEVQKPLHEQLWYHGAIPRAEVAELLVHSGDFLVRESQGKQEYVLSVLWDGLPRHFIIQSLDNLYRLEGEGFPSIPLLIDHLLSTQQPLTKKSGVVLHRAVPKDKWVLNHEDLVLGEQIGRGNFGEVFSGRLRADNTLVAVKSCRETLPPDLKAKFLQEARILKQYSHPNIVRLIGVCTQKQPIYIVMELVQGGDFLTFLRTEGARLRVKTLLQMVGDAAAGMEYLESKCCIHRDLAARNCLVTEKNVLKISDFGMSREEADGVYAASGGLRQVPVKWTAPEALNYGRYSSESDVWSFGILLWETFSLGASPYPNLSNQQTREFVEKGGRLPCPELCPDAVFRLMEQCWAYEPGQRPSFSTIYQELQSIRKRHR
Protocol Details: phosphorylation enrichment, bacterial display (enrichment ratio); higher = better substrate or ligand; peptides without Tyr show the background
// no unit, no text: just the number

INSERT INTO results (sequence_entry, reported_value) VALUES
  ('GYCSWYRGWAP [TIMP3_Y195]', 1.53),
  ('IDPYIYTPFGS [CYP3A4_Y432]', 0.956);

Qu. // returns reported phosphorylation enrichment for input VRHRRYKHTHE [CTCF_Y343]
Ans. 0.654

Qu. // returns reported phosphorylation enrichment for input FPMLNYKDIRK [CFAP221_Y798]
Ans. 0.628

###

phosphorylation enrichment: recorded values
Study System: Fes (UniProt P07332)
Protocol Details: phosphorylation enrichment, bacterial display (enrichment ratio); higher = better substrate or ligand; peptides without Tyr show the background
// no unit, no text: just the number

A selection of reference data follows.
INSERT INTO measurements (sequence_entry, quantity_name, reported_value) VALUES
  ('VQVAFYTMMMN [SPATA17_Y84_YF]', 'phosphorylation enrichment', 1.51),
  ('SIKGKYVTALY [KCNH2_Y611_D609G]', 'phosphorylation enrichment', 0.552),
  ('RSGIFYKPESL [L2HGDH_Y103_H98R_YF]', 'phosphorylation enrichment', 0.866),
  ('RSAGKDDVYLI [MECP2_Y120_Y120D]', 'phosphorylation enrichment', 0.862),
  ('HLVLNYGVCFC [JAK2_Y613_V617F]', 'phosphorylation enrichment', 2.32),
  ('CRIELYRVVES [IGFBP1_Y181]', 'phosphorylation enrichment', 1.29);

Please examine the following record next.
Qu. // returns reported phosphorylation enrichment for input ADFPDCKFRPR [SOX11_Y116_Y116C_YF]
Ans. 0.983

###

Tested on: AncSZ
Protocol Details: phosphorylation enrichment, bacterial display (enrichment ratio); higher = better substrate or ligand; peptides without Tyr show the background
phosphorylation enrichment: recorded values
// no unit, no text: just the number

A selection of reference data follows.
INSERT INTO measurements (sequence_entry, study_system, reported_value) VALUES
  ('LPKVSYVKAID [GLRA1_Y307]', 'AncSZ', 0.629),
  ('ASRKFYAMKIL [AKT3_Y174_G171R_YF]', 'AncSZ', 0.725),
  ('LAVPLYKNGVK [CPS1_Y1069]', 'AncSZ', 1.23),
  ('RGVAHYILQTF [SLC39A4_Y359_T357A]', 'AncSZ', 1.48),
  ('AHLLQYNHQVK [LGALS3_Y221_R224Q]', 'AncSZ', 0.706);

Qu. Hello, I am looking for reported phosphorylation enrichment with AncSZ for EFLRNYFTDKA [DSG2_Y775] . Could you help?
Ans. 1.09

Qu. Hello, I am looking for reported phosphorylation enrichment with AncSZ for LAAPKYKLNVD [SMARCA2_Y1190_A1188P] . Could you help?
Ans. 0.46

###

Study System: FGFR1 (UniProt P11362)
Sequence (P11362 whole entry, looked up): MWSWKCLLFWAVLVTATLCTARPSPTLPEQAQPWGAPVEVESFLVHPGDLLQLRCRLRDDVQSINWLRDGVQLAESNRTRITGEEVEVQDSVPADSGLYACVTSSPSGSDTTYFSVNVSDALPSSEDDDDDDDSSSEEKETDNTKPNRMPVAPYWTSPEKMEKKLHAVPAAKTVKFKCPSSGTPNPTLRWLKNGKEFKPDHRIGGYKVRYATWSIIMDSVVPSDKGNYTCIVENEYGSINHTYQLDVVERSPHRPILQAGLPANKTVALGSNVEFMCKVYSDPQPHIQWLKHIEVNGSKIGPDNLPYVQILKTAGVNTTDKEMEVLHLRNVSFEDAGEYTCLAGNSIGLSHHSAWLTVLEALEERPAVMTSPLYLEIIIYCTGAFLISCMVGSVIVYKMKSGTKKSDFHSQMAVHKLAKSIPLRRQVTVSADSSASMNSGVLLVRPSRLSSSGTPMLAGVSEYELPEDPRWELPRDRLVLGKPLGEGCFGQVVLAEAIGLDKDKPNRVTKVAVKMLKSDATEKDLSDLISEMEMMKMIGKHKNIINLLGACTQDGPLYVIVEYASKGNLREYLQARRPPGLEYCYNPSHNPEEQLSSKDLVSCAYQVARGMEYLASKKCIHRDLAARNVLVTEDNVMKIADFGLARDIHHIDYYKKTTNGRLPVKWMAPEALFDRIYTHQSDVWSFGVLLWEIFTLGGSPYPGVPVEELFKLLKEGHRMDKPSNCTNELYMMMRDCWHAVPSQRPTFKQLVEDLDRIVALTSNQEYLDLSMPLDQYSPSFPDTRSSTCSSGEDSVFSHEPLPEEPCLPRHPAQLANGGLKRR
Protocol Details: phosphorylation enrichment, bacterial display (enrichment ratio); higher = better substrate or ligand; peptides without Tyr show the background
phosphorylation enrichment: recorded values
// no unit, no text: just the number

A selection of reference data follows.
INSERT INTO assay_data (sequence_entry, quantity_name, reported_value) VALUES
  ('HLVLNYGVCFC [JAK2_Y613_V617F]', 'phosphorylation enrichment', 1.2),
  ('GGYTCCCDGKK [PROS1_Y266_Y266C]', 'phosphorylation enrichment', 0.444),
  ('FTNELYMMMRD [FGFR1_Y730_C725Y_YF]', 'phosphorylation enrichment', 1.54),
  ('IDDLEYLHSQG [STK11_Y166_G163D]', 'phosphorylation enrichment', 0.676),
  ('VAVVDYVEPSP [TXNRD2_Y70]', 'phosphorylation enrichment', 0.603);

Qu. // returns reported phosphorylation enrichment for input EQKKFYNATKK [SCN5A_Y1495_M1498T_YF]
Ans. 0.412

Qu. // returns reported phosphorylation enrichment for input SLDLSYYTTSS [EMD_Y181_P183T]
Ans. 0.872

Qu. // returns reported phosphorylation enrichment for input DKANRYFSPNV [PTEN_Y336_F341V]
Ans. 0.355

Qu. // returns reported phosphorylation enrichment for input QQTFTYDSGIH [JUP_Y22_YF]
Ans. 0.984

###

Study System: Grb2 SH2 (UniProt P62993)
Protocol Details: SH2 binding enrichment of the phosphorylated peptide, bacterial display (enrichment ratio); higher = better substrate or ligand; peptides without Tyr show the background
Quantity Name: SH2 binding enrichment

INSERT INTO assay_data (sequence_entry, quantity_name, reported_value) VALUES
  ('GYQPEYGQPAG [SYP_Y278_D277E]', 'SH2 binding enrichment', 0.801),
  ('CTTIHYNYMCN [TP53_Y234]', 'SH2 binding enrichment', 1.25),
  ('VLTSTYRGGGG [HBA1_Y141_K140T]', 'SH2 binding enrichment', 0.84),
  ('RYMELYDLNRD [BBS2_Y648]', 'SH2 binding enrichment', 0.989),
  ('LFLALYTGLVH [PIGB_Y402]', 'SH2 binding enrichment', 1.43),
  ('GDPVQYNRTTD [MLPH_Y454]', 'SH2 binding enrichment', 0.812),
  ('KRFAFYRDSPR [FOXE3_Y108_E103K]', 'SH2 binding enrichment', 1.14);

###

Study System: FGFR1 (UniProt P11362)
Protocol Details: phosphorylation enrichment, bacterial display (enrichment ratio); higher = better substrate or ligand; peptides without Tyr show the background
Quantity Name: phosphorylation enrichment
// no unit, no text: just the number

INSERT INTO measurements (sequence_entry, quantity_name, reported_value) VALUES
  ('ALEKTYNTYRS [B4GALNT2_Y538]', 'phosphorylation enrichment', 0.391),
  ('NELTFYCCKKD [CD59_Y87_YF]', 'phosphorylation enrichment', 0.54),
  ('SLAARYFNWVC [FLT4_Y1230_S1235C_YF]', 'phosphorylation enrichment', 0.661);

Qu. // returns reported phosphorylation enrichment for input FEDTLYTVLHR [UNC13D_Y61_A59T_YF]
Ans. 1.18

Qu. // returns reported phosphorylation enrichment for input ERDTVYSSSGV [NELL2_Y350_N347D]
Ans. 0.502

Qu. // returns reported phosphorylation enrichment for input IFETDYFQKGG [INSR_Y1189_R1191Q_YF]
Ans. 0.468

Qu. // returns reported phosphorylation enrichment for input AEYGLYAAMVR [VSX2_Y222_G223A]
Ans. 0.639

Qu. // returns reported phosphorylation enrichment for input KWELRYMHSRV [ABCD1_Y281_G277W]
Ans. 0.393

Qu. // returns reported phosphorylation enrichment for input RALCHYFKLNI [ETV6_Y401_R399C_YF]
Ans. 0.783

Qu. // returns reported phosphorylation enrichment for input TLMNAYSSRSH [KIF11_Y231]
Ans. 0.449

Qu. // returns reported phosphorylation enrichment for input TWSRSYRSDRL [CRYBB1_Y131_S129R]
Ans. 0.607

Qu. // returns reported phosphorylation enrichment for input RRNTPYSQTMK [TET2_Y819_S817T]
Ans. 0.273

Qu. // returns reported phosphorylation enrichment for input VRFMADTDETF [F8_Y450_Y450D]
Ans. 0.505

###

Tested on: c-Abl (mouse)
Protocol Details: phosphorylation enrichment, bacterial display (enrichment ratio); higher = better substrate or ligand; peptides without Tyr show the background
Quantity Name: phosphorylation enrichment
// no unit, no text: just the number

A selection of reference data follows.
INSERT INTO results (sequence_entry, study_system, reported_value) VALUES
  ('AGRTGYDNREI [BCL2_Y9]', 'c-Abl (mouse)', 0.974),
  ('EWKNNCPRLRE [OPA1_Y582_Y582C]', 'c-Abl (mouse)', 0.592),
  ('KAIMTYVPSFY [ACTN4_Y260_S262P]', 'c-Abl (mouse)', 0.803),
  ('FQEKSYIKGTS [LCTL_Y331_L326F]', 'c-Abl (mouse)', 0.612),
  ('GCVRMYELVHR [GLE1_Y135]', 'c-Abl (mouse)', 0.754),
  ('EYRFIYMAVQH [PTPN11_Y515_Q510E]', 'c-Abl (mouse)', 2.02),
  ('GFPVHYTDMSN [DNMT3B_Y815_V818M]', 'c-Abl (mouse)', 0.568),
  ('KFMVGYEMIAQ [GALT_Y339_L342I]', 'c-Abl (mouse)', 0.696);

Qu. // returns reported phosphorylation enrichment for input PYVYYYSYLLK [PTEN_Y178_R173P]
Ans. 3.68

Qu. // returns reported phosphorylation enrichment for input KTKIGYSPLHQ [ANK1_Y735_L733I]
Ans. 0.456

Qu. // returns reported phosphorylation enrichment for input LDCNEYFRDLN [HPRT1_Y198_Y195C]
Ans. 1.15

Qu. // returns reported phosphorylation enrichment for input EKFVPYYDLFM [IPO5_Y530]
Ans. 0.787

Qu. // returns reported phosphorylation enrichment for input EEESCYILHSS [PATJ_Y783]
Ans. 0.892

Qu. // returns reported phosphorylation enrichment for input YIGVTYKNKED [PDGFRA_Y993_E996K]
Ans. 0.675
